- ASSAYED SYSTEM: recombinant BACE2 protein (Homo sapiens)
- Construct: recombinant BACE2 protein in a final concentration of 0.4 μg/ml
- EXPERIMENT SUMMARY: BACE2 biochemical FRET based assay
- CONDITION PARAMETERS: BACE2, 450 minutes at room temperature, pH 5.0; read-out: Biochemical FRET based assay pIC50 (converted)
I'd be grateful if you could share measured IC50 for these entries.
Answers are plain numbers, in nM.

Worked examples follow.
| MOLECULE | NUMERIC RESULT |
| --- | --- |
| C[C@@]1(S(C)(=O)=O)CC[C@@](CF)(c2cc(NC(=O)c3cnc(OCF)cn3)ccc2F)N=C1N [Compound 41] | 16.6 |
| COc1cnc(C(=O)Nc2ccc(F)c(C3(CF)CCC(C)(S(C)(=O)=O)C(N)=N3)c2)nc1 (stereo not shown) [Compound 45] | 13.5 |
| COc1cnc(C(=O)Nc2ccc(F)c([C@@]3(C)N=C(N)[C@@](C)(C#N)C[C@H]3F)c2)cn1 [Compound 6] | 537 |
| CC1(S(C)(=O)=O)CCC(CF)(c2cc(NC(=O)c3ccc(C#N)cn3)ccc2F)N=C1N (stereo not shown) [Compound 22] | 5.25 |
| C[C@]1(S(C)(=O)=O)CC(F)(F)[C@@](C)(c2cc(NC(=O)c3cnc(OCF)cn3)ccc2F)N=C1N [Compound 23] | 4680 |
| CO[C@H]1C[C@@](C)(C#N)C(N)=N[C@]1(C)c1cc(NC(=O)c2cnc(OCF)cn2)ccc1F [Compound 49a] | 324 |

Record request: IC50 value, item CC1(S(C)(=O)=O)CCC(CF)(c2cc(NC(=O)c3ncc(C(F)(F)F)cn3)ccc2F)N=C1N (stereo not shown) [Compound 43]
64.6

###

- ASSAYED SYSTEM: recombinant BACE2 protein (Homo sapiens)
- Construct: recombinant BACE2 protein in a final concentration of 0.4 μg/ml
- Sequence (Q9Y5Z0 63-518): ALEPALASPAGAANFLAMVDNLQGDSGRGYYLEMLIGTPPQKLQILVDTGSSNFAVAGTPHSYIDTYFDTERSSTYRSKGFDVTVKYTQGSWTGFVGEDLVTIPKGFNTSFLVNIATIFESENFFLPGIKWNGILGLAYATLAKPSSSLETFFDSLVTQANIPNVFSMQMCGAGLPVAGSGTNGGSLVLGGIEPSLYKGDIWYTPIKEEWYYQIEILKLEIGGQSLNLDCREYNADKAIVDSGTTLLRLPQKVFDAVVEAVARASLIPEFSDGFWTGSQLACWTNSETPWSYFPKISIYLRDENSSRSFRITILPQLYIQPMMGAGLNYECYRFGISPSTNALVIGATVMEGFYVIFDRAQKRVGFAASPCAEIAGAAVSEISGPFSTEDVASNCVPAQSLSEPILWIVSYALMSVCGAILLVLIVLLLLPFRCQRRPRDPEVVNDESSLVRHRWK
- EXPERIMENT SUMMARY: BACE2 biochemical FRET based assay
- CONDITION PARAMETERS: BACE2, 450 minutes at room temperature, pH 5.0; read-out: Biochemical FRET based assay pIC50 (converted)
I'd be grateful if you could share measured log10 of IC50 for these entries.
Log10 applied to IC50; unit prior to transform: nM.

| COMPOUND | log10 of IC50 |
| --- | --- |
| CC(C)S(=O)(=O)C1(C)CCC(CF)(c2cc(NC(=O)c3ccc(F)cn3)ccc2F)N=C1N (single isomer, unassigned) [Compound 34] | 3.63 |
| COc1cnc(C(=O)Nc2ccc(F)c([C@@]3(C)N=C(N)[C@](C)(C#N)C[C@@H]3F)c2)cn1 | 1.85 |
| COc1cnc(C(=O)Nc2ccc(F)c(C3(C)CCC(C)(C#N)C(N)=N3)c2)cn1 (single isomer, unassigned) [Compound 16] | 3.13 |
| COc1cnc(C(=O)Nc2ccc(F)c([C@]3(C(F)F)CC[C@@](C)(C#N)C(N)=N3)c2)cn1 | 2.06 |
| COc1cnc(C(=O)Nc2ccc(F)c([C@]3(CF)CC[C@@](C)(S(C)(=O)=O)C(N)=N3)c2)cn1 | 1.14 |
| C[C@]1(c2cc(NC(=O)c3cnc(OCF)cn3)ccc2F)N=C(N)[C@](C)(S(C)(=O)=O)CC1(F)F | 2.99 |
| COc1cnc(C(=O)Nc2ccc(F)c([C@]3(CF)CC[C@](C)(C#N)C(N)=N3)c2)cn1 | 3.76 |
| CC1(S(C)(=O)=O)CCC(CF)(c2cc(NC(=O)c3cnc(OCC(F)(F)F)cn3)ccc2F)N=C1N (stereo not drawn) | 1.40 |

# batch size: 4; output log10 of IC50 per entry
1. Cc1nc(C(=O)Nc2ccc(F)c(C3(CF)CCC(C)(S(C)(=O)=O)C(N)=N3)c2)co1 (stereo not drawn)
2. COc1cnc(C(=O)Nc2ccc(F)c([C@@]3(C)N=C(N)[C@](C)(C#N)C[C@]3(C)F)c2)cn1
3. CC[C@]1(S(C)(=O)=O)CC[C@@](CF)(c2cc(NC(=O)c3ccc(F)cn3)ccc2F)N=C1N [Compound 29a]
4. CCC1(S(=O)(=O)CC)CCC(CF)(c2cc(NC(=O)c3ccc(F)cn3)ccc2F)N=C1N (stereo not drawn)

0.52
2.59
2.89
1.39

###

I'd be grateful if you could share measured IC50 for these entries.
- ASSAYED SYSTEM: recombinant BACE2 protein (Homo sapiens, UniProt Q9Y5Z0)
- Construct: recombinant BACE2 protein in a final concentration of 0.4 μg/ml
- EXPERIMENT SUMMARY: BACE2 biochemical FRET based assay
- CONDITION PARAMETERS: BACE2, 450 minutes at room temperature, pH 5.0; read-out: Biochemical FRET based assay pIC50 (converted)
Answers are plain numbers, in µM.

Worked examples follow.
| COMPOUND | ASSAYED SYSTEM | READOUT UNITS | IC50 |
| --- | --- | --- | --- |
| Cc1cc(C#N)cnc1C(=O)Nc1ccc(F)c([C@]2(CF)CC[C@@](C)(S(C)(=O)=O)C(N)=N2)c1 | recombinant BACE2 protein (Homo sapiens, UniProt Q9Y5Z0) | µM | 0.00501 |
| CC1(S(C)(=O)=O)CCC(CF)(c2cc(NC(=O)c3cnc(OC(F)F)cn3)ccc2F)N=C1N (stereo not shown) | recombinant BACE2 protein (Homo sapiens, UniProt Q9Y5Z0) | µM | 0.0115 |

# batch size: 4; output IC50 per entry
1. CC1(S(=O)(=O)C2CC2)CCC(CF)(c2cc(NC(=O)c3ccc(F)cn3)ccc2F)N=C1N (stereo not shown)
2. CC1(S(C)(=O)=O)CCC(CF)(c2cc(NC(=O)c3cnc(OCC(F)F)cn3)ccc2F)N=C1N (stereo not shown)
3. C[C@@]1(c2cc(NC(=O)c3ccc(F)cn3)ccc2F)CC[C@@](CF)(S(C)(=O)=O)C(N)=N1
4. COc1cnc(C(=O)Nc2ccc(F)c([C@]3(C)CC[C@](C)(S(C)(=O)=O)C(N)=N3)c2)cn1

1: 0.00204; 2: 0.0447; 3: 0.011; 4: 0.513

###

I'd be grateful if you could share measured IC50 for these entries.
- ASSAYED SYSTEM: recombinant BACE2 protein (Homo sapiens, UniProt Q9Y5Z0)
- Construct: recombinant BACE2 protein in a final concentration of 0.4 μg/ml
- EXPERIMENT SUMMARY: BACE2 biochemical FRET based assay
- CONDITION PARAMETERS: BACE2, 450 minutes at room temperature, pH 5.0; read-out: Biochemical FRET based assay pIC50 (converted)
Answers are plain numbers, in nM.

| COMPOUND | ASSAYED SYSTEM | READOUT UNITS | IC50 |
| --- | --- | --- | --- |
| C[C@@]1(S(C)(=O)=O)CC[C@@](CF)(c2cc(NC(=O)c3ccc(F)cn3)cc(F)c2F)N=C1N | recombinant BACE2 protein (Homo sapiens, UniProt Q9Y5Z0) | nM | 4.37 |
| COc1cnc(C(=O)Nc2ccc(F)c([C@@]3(C)N=C(N)[C@@](C)(C#N)C[C@@H]3F)c2)cn1 | recombinant BACE2 protein (Homo sapiens, UniProt Q9Y5Z0) | nM | 562 |
| COc1cnc(C(=O)Nc2ccc(F)c([C@]3(C)CC[C@@](C)(S(C)(=O)=O)C(N)=N3)c2)cn1 | recombinant BACE2 protein (Homo sapiens, UniProt Q9Y5Z0) | nM | 21.9 |

Kindly consider the entry below.
What IC50 appears in the records for this compound with recombinant BACE2 protein (Homo sapiens, UniProt Q9Y5Z0)? CC1(S(C)(=O)=O)CCC(CF)(c2cc(NC(=O)c3cnc(C(F)F)cn3)ccc2F)N=C1N (stereo not shown)
22.4

###

- System: Abeta 1-37, Abeta 1-38, Abeta 1-40 and Abeta 1-42 in CSF
- EXPERIMENT SUMMARY: Pharmacology in the Beagle dog: beta-amyloid profile in cerebrospinal fluid (CSF) after a single dose
- Assay type: in vivo
- CONDITION PARAMETERS: Canis lupus familiaris, single dose 0.31 mg/kg, 8 h post dosing, read-out: % Decrease in Abeta 1-42 at 8 h post dosing compared to own baseline
VALUE KIND: inhibition in vivo at 0.31 mg/kg (%)
Answers are plain numbers, in %.

Worked examples follow.
| COMPOUND | NUMERIC RESULT |
| --- | --- |
| C[C@@]1(S(C)(=O)=O)CC[C@@](CF)(c2cc(NC(=O)c3cnc(OCF)cn3)ccc2F)N=C1N [Compound 41] | 78 |
| Cc1cc(C#N)cnc1C(=O)Nc1ccc(F)c([C@]2(CF)CC[C@@](C)(S(C)(=O)=O)C(N)=N2)c1 [Compound 21] | 78 |
| CC1(S(C)(=O)=O)CCC(CF)(c2cc(NC(=O)c3cnc(OCC(F)(F)F)cn3)ccc2F)N=C1N (centres unmarked) [Compound 39] | 53 |
| CC(C)S(=O)(=O)C1(C)CCC(CF)(c2cc(NC(=O)c3ccc(F)cn3)ccc2F)N=C1N (single isomer, unassigned) [Compound 33] | 34 |
| COc1cnc(C(=O)Nc2ccc(F)c([C@]3(CF)CC[C@@](C)(S(C)(=O)=O)C(N)=N3)c2)cn1 [Compound 2] | 56 |

# batch size: 3; output inhibition in vivo at 0.31 mg/kg per entry
1. CC1(S(C)(=O)=O)CCC(CF)(c2cc(NC(=O)c3cnc(OC(F)F)cn3)ccc2F)N=C1N (centres unmarked) [Compound 32]
2. CC1(S(C)(=O)=O)CCC(CF)(c2cc(NC(=O)c3ccc(C#N)cn3)ccc2F)N=C1N (centres unmarked) [Compound 22]
3. CCS(=O)(=O)C1(C)CCC(CF)(c2cc(NC(=O)c3ccc(F)cn3)ccc2F)N=C1N (centres unmarked) [Compound 31]

1. 76
2. 78
3. 31

Numbers sourced from patent US20180334447A1.
